# Tested on: Candida albicans
# Experiment: Inhibition of Candida albicans CDR1 expressed in Saccharomyces cerevisiae AD assessed as ratio of compound MIC80 in combinantion with fluconazole to compound alone MIC80 for Saccharomyces cerevisiae AD by checkerboard method
Endpoint Label: Ratio
Form rule: numeric answer, no unit written next to it.

CCCC(=O)O[C@@H]1[C@@H]2[C@@H](OC(=O)CCC)[C@]3(CC[C@H]4[C@@H](/C=C(\C)C(=O)[C@@]2(OC(=O)CCC)C[C@@H]1C)C4(C)C)CO3; 1
CCCC(=O)O[C@@H]1[C@@H]2[C@@H](OC(C)=O)[C@]3(CC[C@H]4[C@@H](/C=C(\C)C(=O)[C@@]2(OC(C)=O)C[C@@H]1C)C4(C)C)CO3; 1

Read the next record carefully.
-- ask Using the record for C=C1CC[C@H]2[C@@H](/C=C(\C)C(=O)[C@@]3(O)C[C@H](C)[C@H](O)[C@@H]3[C@H]1OC(=O)c1ccc(C(F)(F)F)cc1)C2(C)C , report its Ratio.
-- reply 1

All values here come from ChEMBL document CHEMBL4020757.
